This collection of values is drawn from patent US20260083708A1.

# assayed target: IL-17AA and IL-17RA (Homo sapiens, UniProt Q16552)
# Construct: 10895-H02H (IL-17RA)
# Sequence (Q16552 24-155): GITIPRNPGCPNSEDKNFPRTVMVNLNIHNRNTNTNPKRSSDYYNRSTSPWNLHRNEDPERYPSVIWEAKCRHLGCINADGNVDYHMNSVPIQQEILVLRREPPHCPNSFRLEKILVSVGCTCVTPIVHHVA
# experiment summary: Competitive inhibition of human IL-17AA and IL-17RA binding (HTRF)
# conditions: recombinant IL-17AA (His-tag) and IL-17RA (hFc-tag); read-out: IC50 for Inhibiting IL-AA/IL-RA Binding
endpoint label: log10 IC50 (log10 of the value in nM)
Hey, these are logged values: log10 of IC50, nM being the unit before logging.

CCn1nccc1C(=O)N[C@H](C(=O)Nc1ccc([C@H](C)[C@@H](NC(=O)CO)c2ncnn2CC2CC2)cc1F)C(C1CC1)C1CC1 [Compound 49] = 1.45
CCn1nccc1C(=O)N[C@H](C(=O)Nc1ccc([C@H](C)[C@@H](NC(=O)COC)c2ncnn2CC2CC2)cc1F)C(C1CC1)C1CC1 [Compound 19] = 0.65
CCCn1ncnc1[C@H](NC(=O)COC)[C@@H](C)c1ccc(NC(=O)[C@@H](NC(=O)c2ccnn2CC)C(C2CC2)C2CC2)c(F)c1 [Compound 31] = 1.04
CCC(=O)N[C@@H](c1ncnn1CC1CC1)[C@@H](C)c1ccc(NC(=O)[C@@H](NC(=O)c2ccnn2CC)C(C2CC2)C2CC2)c(F)c1 [Compound 72] = 0.00

log10 IC50 reported for this compound CCn1nccc1C(=O)N[C@H](C(=O)Nc1ccc([C@H](C)[C@@H](NC(=O)COC)c2nncn2CC2CCOCC2)cc1F)C(C1CC1)C1CC1 [Compound 9] : 1.20

Given item CCn1nccc1C(=O)N[C@H](C(=O)Nc1ccc([C@H](C)[C@@H](NC(=O)COC)c2ncnn2CCN2CCN(C)CC2)cc1F)C(C1CC1)C1CC1 [Compound 52] , the value recorded as its log10 IC50 is 2.26

Data point: CC(=O)N[C@@H](c1ncnn1CC1CC1)[C@@H](C)c1ccc(NC(=O)[C@@H](NC(=O)c2nonc2C)C(C2CC2)C2CC2)c(F)c1 [Compound 67] ; log10 IC50 = 0.04

The compound listed as CCn1nccc1C(=O)N[C@H](C(=O)Nc1ccc([C@H](C)[C@@H](NC(=O)COC)c2ncn(CC3CC3)n2)cc1F)C(C1CC1)C1CC1 [Compound 20] shows log10 IC50 equal to 1.30

Noted for CCC(=O)N[C@@H](c1ncnn1CC1CC1)[C@@H](C)c1ccc(NC(=O)[C@@H](NC(=O)c2ccnn2C(C)C)C(C2CC2)C2CC2)c(F)c1 [Compound 44] : its log10 IC50 reads 0.28

log10 IC50 recorded for this compound, CCn1nccc1C(=O)N[C@H](C(=O)Nc1ccc([C@H](C)[C@@H](NC(=O)COC)c2nncn2C2CC2)cc1F)C(C1CC1)C1CC1 [Compound 12] , is 1.69

Summary for this compound, COCC(=O)N[C@@H](c1nncn1CC1CC1)[C@@H](C)c1ccc(NC(=O)[C@@H](NC(=O)c2ccnn2C(C)C)C(C2CC2)C2CC2)c(F)c1 [Compound 4] : log10 IC50 is 1.00

Note to self: log10 IC50 recorded for [2H]C([2H])([2H])n1nccc1C(=O)N[C@H](C(=O)Nc1ccc([C@H](C)[C@H](NC(=O)CC)c2ncnn2CC2CC2)cc1F)C(C1CC1)C1CC1 [Compound 87] was 3.30
